Target or system RNA-directed RNA polymerase L (Bunyavirus La Crosse, UniProt A5HC98): recorded IC50 listed per item.
Return type: number; implicit unit µM.

Worked cases, IC50 given:
Item under review: O=C1c2c(ccc(O)c2O)CN1Cc1ccc(Cl)c(C(F)(F)F)c1 . Reported IC50? 29.2

What do you get for O=C1c2c(ccc(O)c2O)CN1Cc1ccc([N+](=O)[O-])cc1 ? 8

What do you get for O=C1c2c(ccc(O)c2O)CN1Cc1cc(O)c(O)c(O)c1 ? 1.1

What do you get for O=C1c2c(ccc(O)c2O)CN1Cc1ccc2ccccc2c1 ? 3.9

What do you get for O=C1c2c(ccc(O)c2O)CN1Cc1cccc2ccccc12 ? 11.2

What do you get for Cc1ccc(CN2Cc3ccc(O)c(O)c3C2=O)cc1 ? 3.4

What do you get for O=C1c2c(ccc(O)c2O)CN1Cc1ccc(F)cc1 ? 4

What do you get for O=C1c2c(ccc(O)c2O)CN1Cc1ccccc1 ? 9

What do you get for O=C1c2c(ccc(O)c2O)CN1Cc1ccc(O)c(O)c1 ? 4

What do you get for O=C1c2c(ccc(O)c2O)CN1CCc1ccc(O)cc1 ? 6.1

New cases:
Item under review: O=C1c2c(ccc(O)c2O)CN1Cc1ccc(O)cc1 . Reported IC50? 0.7

What do you get for O=C1c2c(ccc(O)c2O)CN1Cc1ccc(F)c(Cl)c1 ? 4.8

----------
target: RNA-directed RNA polymerase L (Bunyavirus La Crosse) (UniProt A5HC98); details: La Crosse virus; dose 25.0 µM
Sequence (A5HC98 whole entry): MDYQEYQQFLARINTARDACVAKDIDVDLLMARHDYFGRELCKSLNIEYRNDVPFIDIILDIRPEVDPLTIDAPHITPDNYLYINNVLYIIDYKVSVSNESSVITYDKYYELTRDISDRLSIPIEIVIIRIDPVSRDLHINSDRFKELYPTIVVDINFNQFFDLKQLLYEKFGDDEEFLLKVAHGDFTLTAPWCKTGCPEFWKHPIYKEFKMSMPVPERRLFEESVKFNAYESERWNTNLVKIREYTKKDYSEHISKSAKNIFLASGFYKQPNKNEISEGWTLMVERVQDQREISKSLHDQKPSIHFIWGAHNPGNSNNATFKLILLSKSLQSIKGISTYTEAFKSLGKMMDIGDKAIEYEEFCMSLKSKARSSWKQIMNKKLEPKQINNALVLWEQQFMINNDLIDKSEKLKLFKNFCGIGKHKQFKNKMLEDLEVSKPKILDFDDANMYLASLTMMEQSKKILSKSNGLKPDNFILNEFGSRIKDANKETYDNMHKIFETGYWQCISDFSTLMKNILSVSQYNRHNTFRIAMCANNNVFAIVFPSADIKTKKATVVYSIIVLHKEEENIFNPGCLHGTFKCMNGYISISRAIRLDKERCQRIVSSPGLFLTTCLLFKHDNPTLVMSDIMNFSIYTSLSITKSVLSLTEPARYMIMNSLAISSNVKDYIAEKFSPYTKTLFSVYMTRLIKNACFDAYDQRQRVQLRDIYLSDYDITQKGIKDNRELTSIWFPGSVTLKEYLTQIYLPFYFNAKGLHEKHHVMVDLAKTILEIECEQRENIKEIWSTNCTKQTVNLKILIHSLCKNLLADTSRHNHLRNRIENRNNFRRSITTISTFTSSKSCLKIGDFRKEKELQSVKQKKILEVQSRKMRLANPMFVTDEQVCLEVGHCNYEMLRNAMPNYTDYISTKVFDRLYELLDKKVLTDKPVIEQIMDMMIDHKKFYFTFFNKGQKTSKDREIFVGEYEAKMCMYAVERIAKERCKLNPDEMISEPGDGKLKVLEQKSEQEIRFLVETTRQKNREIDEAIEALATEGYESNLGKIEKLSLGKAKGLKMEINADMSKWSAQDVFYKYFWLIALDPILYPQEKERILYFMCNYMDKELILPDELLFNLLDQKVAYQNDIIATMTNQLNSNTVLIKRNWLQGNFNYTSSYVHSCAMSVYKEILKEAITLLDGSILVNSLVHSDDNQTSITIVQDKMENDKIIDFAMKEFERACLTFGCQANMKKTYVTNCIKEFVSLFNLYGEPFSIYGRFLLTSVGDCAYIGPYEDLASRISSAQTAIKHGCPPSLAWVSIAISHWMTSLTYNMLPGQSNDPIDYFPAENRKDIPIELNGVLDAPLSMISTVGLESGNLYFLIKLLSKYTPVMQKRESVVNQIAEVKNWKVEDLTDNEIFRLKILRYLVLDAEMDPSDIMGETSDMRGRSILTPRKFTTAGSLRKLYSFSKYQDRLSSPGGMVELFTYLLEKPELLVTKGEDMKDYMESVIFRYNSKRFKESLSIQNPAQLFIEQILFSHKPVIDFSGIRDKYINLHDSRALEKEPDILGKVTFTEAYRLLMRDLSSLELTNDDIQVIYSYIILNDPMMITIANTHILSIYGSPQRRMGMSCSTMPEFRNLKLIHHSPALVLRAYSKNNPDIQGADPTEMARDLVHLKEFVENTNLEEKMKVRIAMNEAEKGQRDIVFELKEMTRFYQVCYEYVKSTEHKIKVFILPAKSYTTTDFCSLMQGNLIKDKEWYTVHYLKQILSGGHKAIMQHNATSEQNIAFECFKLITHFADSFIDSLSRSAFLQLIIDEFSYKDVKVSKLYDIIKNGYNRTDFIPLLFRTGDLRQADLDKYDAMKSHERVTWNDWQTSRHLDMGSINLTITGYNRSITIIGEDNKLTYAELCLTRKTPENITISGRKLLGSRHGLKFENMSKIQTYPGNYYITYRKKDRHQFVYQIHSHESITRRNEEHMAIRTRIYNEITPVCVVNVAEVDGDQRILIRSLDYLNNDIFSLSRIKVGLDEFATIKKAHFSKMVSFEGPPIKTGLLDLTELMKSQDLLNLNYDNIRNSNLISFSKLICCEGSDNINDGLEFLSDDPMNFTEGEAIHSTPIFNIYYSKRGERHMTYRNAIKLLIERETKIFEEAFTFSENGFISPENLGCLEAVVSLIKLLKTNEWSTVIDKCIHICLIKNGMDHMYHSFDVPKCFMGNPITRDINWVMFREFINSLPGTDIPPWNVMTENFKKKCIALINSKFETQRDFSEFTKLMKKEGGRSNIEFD
Activity calls are given as the source filed them. The calls are words filed in the database; no cut-off is given here.
Return exactly one item of active, inactive

// known answers, use as guide
Identify the outcome logged in this assay for the compound shown: O=C1c2c(ccc(O)c2O)CN1Cc1cc(O)c(O)c(O)c1 active

What do you get for O=C1c2c(ccc(O)c2O)CN1Cc1ccc(F)c(Cl)c1 ? inactive

What do you get for O=C1c2c(ccc(O)c2O)CN1Cc1ccc([N+](=O)[O-])cc1 ? active

New cases:
Identify the outcome logged in this assay for the compound shown: O=C1c2c(ccc(O)c2O)CN1Cc1ccc(F)cc1 active

What do you get for O=C1c2c(ccc(O)c2O)CN1CCc1ccc(O)cc1 ? active

What do you get for O=C1c2c(ccc(O)c2O)CN1Cc1ccc2ccccc2c1 ? active

What do you get for O=C1c2c(ccc(O)c2O)CN1Cc1cccc2ccccc12 ? active

What do you get for O=C1c2c(ccc(O)c2O)CN1Cc1ccc(Cl)c(C(F)(F)F)c1 ? active

What do you get for O=C1c2c(ccc(O)c2O)CN1Cc1ccccc1 ? inactive

What do you get for O=C1c2c(ccc(O)c2O)CN1Cc1ccc(O)cc1 ? active

What do you get for Cc1ccc(CN2Cc3ccc(O)c(O)c3C2=O)cc1 ? active

----------
target: RNA-directed RNA polymerase L (Andes orthohantavirus, UniProt Q9E005)
Parameter measured: pIC50
# pIC50: negative log10 of molar concentration; output just the value

Item under review: O=C1c2c(ccc(O)c2O)CN1Cc1cccc2ccccc12 . Reported pIC50? 5.42

What do you get for O=C1c2c(ccc(O)c2O)CN1Cc1ccc(O)c(O)c1 ? 6.30

What do you get for O=C1c2c(ccc(O)c2O)CN1Cc1ccc([N+](=O)[O-])cc1 ? 5.43

Next compound, pIC50 to be filled in.
Item under review: O=C1c2c(ccc(O)c2O)CN1Cc1ccc(F)c(Cl)c1 . Reported pIC50? 5.12

----------
test system: Mammarenavirus choriomeningitidis; experiment: Thermal stabilization of LCMV cap-ENDO assessed as increase in melting temperature at 25 uM in presence of MnCl2 by Sypro Orange dye based assay
Active and inactive are the calls of the source. The calls are words filed in the database; no cut-off is given here.
Return exactly one item of active, inactive

// known answers, use as guide
Identify the outcome logged in this assay for the compound shown: O=C1c2c(ccc(O)c2O)CN1Cc1cccc2ccccc12 active

What do you get for O=C1c2c(ccc(O)c2O)CN1Cc1ccc(O)cc1 ? active

What do you get for O=C1c2c(ccc(O)c2O)CN1Cc1ccccc1 ? inactive

What do you get for O=C1c2c(ccc(O)c2O)CN1Cc1ccc(Cl)c(C(F)(F)F)c1 ? active

What do you get for O=C1c2c(ccc(O)c2O)CN1Cc1ccc2ccccc2c1 ? active

# evaluate next
Identify the outcome logged in this assay for the compound shown: O=C1c2c(ccc(O)c2O)CN1Cc1ccc(F)cc1 active

----------
test system: Pichinde virus; assay: Thermal stabilization of PICV cap-ENDO assessed as increase in melting temperature at 25 uM in presence of MnCl2 by Sypro Orange dye based assay
Active and inactive are the calls of the source. The calls are words filed in the database; no cut-off is given here.
Return exactly one item of label 1 for active, label 0 for inactive

Identify the outcome logged in this assay for the molecule shown: O=C1c2c(ccc(O)c2O)CN1Cc1ccc(F)cc1 label 1

What do you get for O=C1c2c(ccc(O)c2O)CN1Cc1ccc2ccccc2c1 ? label 1

What do you get for O=C1c2c(ccc(O)c2O)CN1Cc1ccc(F)c(Cl)c1 ? label 0

What do you get for O=C1c2c(ccc(O)c2O)CN1Cc1cc(O)c(O)c(O)c1 ? label 1

What do you get for O=C1c2c(ccc(O)c2O)CN1Cc1cccc2ccccc12 ? label 1

New cases:
Identify the outcome logged in this assay for the molecule shown: O=C1c2c(ccc(O)c2O)CN1Cc1ccc(O)cc1 label 1

What do you get for O=C1c2c(ccc(O)c2O)CN1Cc1ccc(Cl)c(C(F)(F)F)c1 ? label 1

What do you get for O=C1c2c(ccc(O)c2O)CN1CCc1ccc(O)cc1 ? label 1

What do you get for O=C1c2c(ccc(O)c2O)CN1Cc1ccc([N+](=O)[O-])cc1 ? label 1

What do you get for O=C1c2c(ccc(O)c2O)CN1Cc1ccccc1 ? label 0

What do you get for Cc1ccc(CN2Cc3ccc(O)c(O)c3C2=O)cc1 ? label 1

----------
target: RNA-directed RNA polymerase L (Andes orthohantavirus) (UniProt Q9E005); conditions: Orthohantavirus andesense; dose 25.0 µM
Calls of active or inactive are those of the source. No cut-off for these calls is given here.
Return exactly one item of active, inactive

// known answers, use as guide
Identify the outcome logged in this assay for the molecule shown: O=C1c2c(ccc(O)c2O)CN1Cc1cccc2ccccc12 active

What do you get for O=C1c2c(ccc(O)c2O)CN1Cc1ccc([N+](=O)[O-])cc1 ? active

What do you get for Cc1ccc(CN2Cc3ccc(O)c(O)c3C2=O)cc1 ? active

What do you get for O=C1c2c(ccc(O)c2O)CN1Cc1ccc(O)cc1 ? active

What do you get for O=C1c2c(ccc(O)c2O)CN1CCc1ccc(O)cc1 ? active

What do you get for O=C1c2c(ccc(O)c2O)CN1Cc1ccc(F)cc1 ? active

What do you get for O=C1c2c(ccc(O)c2O)CN1Cc1ccc(Cl)c(C(F)(F)F)c1 ? active

What do you get for O=C1c2c(ccc(O)c2O)CN1Cc1ccccc1 ? inactive

New cases:
Identify the outcome logged in this assay for the molecule shown: O=C1c2c(ccc(O)c2O)CN1Cc1ccc(F)c(Cl)c1 inactive

What do you get for O=C1c2c(ccc(O)c2O)CN1Cc1ccc2ccccc2c1 ? active

What do you get for O=C1c2c(ccc(O)c2O)CN1Cc1cc(O)c(O)c(O)c1 ? active

----------
molecular target: RNA-directed RNA polymerase L (Toscana virus, UniProt P37800)
Sequence (P37800 whole entry): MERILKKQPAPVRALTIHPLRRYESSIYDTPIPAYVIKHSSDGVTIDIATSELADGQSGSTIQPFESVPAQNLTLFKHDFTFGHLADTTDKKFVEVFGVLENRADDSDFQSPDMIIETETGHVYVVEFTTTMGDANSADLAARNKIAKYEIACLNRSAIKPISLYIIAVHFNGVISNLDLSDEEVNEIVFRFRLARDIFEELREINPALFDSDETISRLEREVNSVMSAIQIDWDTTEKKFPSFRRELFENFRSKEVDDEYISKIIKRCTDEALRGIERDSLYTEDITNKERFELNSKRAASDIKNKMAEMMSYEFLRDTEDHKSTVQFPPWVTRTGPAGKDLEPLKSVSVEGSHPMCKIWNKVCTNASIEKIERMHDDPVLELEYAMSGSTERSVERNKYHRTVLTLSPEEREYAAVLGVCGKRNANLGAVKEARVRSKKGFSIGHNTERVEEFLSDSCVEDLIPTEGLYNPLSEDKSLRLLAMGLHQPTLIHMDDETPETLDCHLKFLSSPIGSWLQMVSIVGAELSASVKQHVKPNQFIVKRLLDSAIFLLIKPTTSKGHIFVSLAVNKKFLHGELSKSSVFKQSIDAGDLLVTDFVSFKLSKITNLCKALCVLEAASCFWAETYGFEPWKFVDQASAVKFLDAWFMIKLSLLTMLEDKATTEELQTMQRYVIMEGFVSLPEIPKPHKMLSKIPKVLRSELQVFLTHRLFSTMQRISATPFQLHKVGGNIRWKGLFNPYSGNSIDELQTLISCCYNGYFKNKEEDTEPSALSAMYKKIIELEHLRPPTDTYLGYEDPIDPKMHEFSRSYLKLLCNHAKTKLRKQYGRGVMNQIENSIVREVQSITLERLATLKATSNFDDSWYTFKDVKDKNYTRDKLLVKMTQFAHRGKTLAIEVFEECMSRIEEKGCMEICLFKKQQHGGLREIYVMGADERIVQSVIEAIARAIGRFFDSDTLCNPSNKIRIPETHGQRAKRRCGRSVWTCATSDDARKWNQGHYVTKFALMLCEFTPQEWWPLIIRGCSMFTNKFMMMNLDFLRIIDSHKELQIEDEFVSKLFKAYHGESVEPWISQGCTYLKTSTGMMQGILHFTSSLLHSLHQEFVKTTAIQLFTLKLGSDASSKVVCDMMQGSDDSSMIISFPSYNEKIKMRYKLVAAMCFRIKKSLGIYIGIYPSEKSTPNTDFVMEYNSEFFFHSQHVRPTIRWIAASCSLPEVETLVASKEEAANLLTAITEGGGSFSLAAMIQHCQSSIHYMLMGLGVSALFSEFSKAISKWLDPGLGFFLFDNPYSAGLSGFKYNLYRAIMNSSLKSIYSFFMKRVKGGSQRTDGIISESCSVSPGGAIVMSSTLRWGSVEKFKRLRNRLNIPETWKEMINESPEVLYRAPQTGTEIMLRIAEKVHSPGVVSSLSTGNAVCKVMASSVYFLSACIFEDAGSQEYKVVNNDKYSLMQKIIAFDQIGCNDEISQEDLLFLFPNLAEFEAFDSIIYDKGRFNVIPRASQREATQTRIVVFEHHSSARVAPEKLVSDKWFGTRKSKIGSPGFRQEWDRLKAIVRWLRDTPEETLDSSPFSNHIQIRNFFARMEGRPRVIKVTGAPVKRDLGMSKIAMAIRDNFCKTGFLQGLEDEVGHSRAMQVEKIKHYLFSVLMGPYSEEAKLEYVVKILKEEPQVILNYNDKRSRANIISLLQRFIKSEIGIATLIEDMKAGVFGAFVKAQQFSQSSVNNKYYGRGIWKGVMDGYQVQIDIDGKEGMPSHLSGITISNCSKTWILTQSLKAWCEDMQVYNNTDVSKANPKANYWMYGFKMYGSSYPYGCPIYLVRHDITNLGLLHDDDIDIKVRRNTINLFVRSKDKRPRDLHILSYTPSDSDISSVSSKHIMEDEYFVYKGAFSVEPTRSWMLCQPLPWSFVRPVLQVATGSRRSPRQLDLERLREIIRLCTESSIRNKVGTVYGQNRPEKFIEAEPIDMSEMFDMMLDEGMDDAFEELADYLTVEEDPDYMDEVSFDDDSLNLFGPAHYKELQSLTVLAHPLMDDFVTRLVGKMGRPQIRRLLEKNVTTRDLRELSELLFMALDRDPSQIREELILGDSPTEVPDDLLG
Parameter measured: Kd (µM)
Return type: number; implicit unit µM.

Item under review: O=C1c2c(ccc(O)c2O)CN1Cc1ccc(O)c(O)c1 . Reported Kd? 28

----------
system: Mammarenavirus lassaense; test: Thermal stabilization of LASV cap-ENDO assessed as increase in melting temperature at 25 uM in presence of MnCl2 by Sypro Orange dye based assay
The source made the active and inactive calls. No cut-off for these calls is given here.
Parameter measured: Activity

Item under review: O=C1c2c(ccc(O)c2O)CN1Cc1cccc2ccccc12 . Reported Activity? Active

What do you get for O=C1c2c(ccc(O)c2O)CN1CCc1ccc(O)cc1 ? Active

What do you get for O=C1c2c(ccc(O)c2O)CN1Cc1ccc(O)cc1 ? Active

What do you get for O=C1c2c(ccc(O)c2O)CN1Cc1ccc(F)c(Cl)c1 ? inactive

What do you get for Cc1ccc(CN2Cc3ccc(O)c(O)c3C2=O)cc1 ? Active

What do you get for O=C1c2c(ccc(O)c2O)CN1Cc1ccc2ccccc2c1 ? Active

What do you get for O=C1c2c(ccc(O)c2O)CN1Cc1ccc(F)cc1 ? Active

What do you get for O=C1c2c(ccc(O)c2O)CN1Cc1ccc([N+](=O)[O-])cc1 ? Active

What do you get for O=C1c2c(ccc(O)c2O)CN1Cc1cc(O)c(O)c(O)c1 ? Active

What do you get for O=C1c2c(ccc(O)c2O)CN1Cc1ccc(Cl)c(C(F)(F)F)c1 ? Active

New cases:
Item under review: O=C1c2c(ccc(O)c2O)CN1Cc1ccccc1 . Reported Activity? inactive

----------
molecular target: RNA-directed RNA polymerase L (Toscana virus)
Parameter measured: IC50 (µM)
Return type: number; implicit unit µM.

Worked cases, IC50 given:
Item under review: O=C1c2c(ccc(O)c2O)CN1Cc1ccc2ccccc2c1 . Reported IC50? 5.8

What do you get for O=C1c2c(ccc(O)c2O)CN1Cc1ccc(O)c(O)c1 ? 2.4

What do you get for O=C1c2c(ccc(O)c2O)CN1CCc1ccc(O)cc1 ? 2.8

New cases:
Item under review: O=C1c2c(ccc(O)c2O)CN1Cc1ccc(O)cc1 . Reported IC50? 3.6

What do you get for O=C1c2c(ccc(O)c2O)CN1Cc1ccc(F)cc1 ? 5.7

What do you get for O=C1c2c(ccc(O)c2O)CN1Cc1cc(O)c(O)c(O)c1 ? 0.9

What do you get for Cc1ccc(CN2Cc3ccc(O)c(O)c3C2=O)cc1 ? 1.5
